Tested on: biofilm of S. aureus ATCC 6538
Assay: 96-well plate crystal violet assay for biofilm inhibition
Type: cell-based, Staphylococcus aureus
Details: Staphylococcus aureus, ATCC6538; 3.125 µg/mL, S. aureus ATCC 6538, replicate 1; read-out: % Inhibition 1
result type: inhibition at 3.125 µg/mL (%)
Give bare numbers, in %.

Field: example entries. Status: answers known.
- structure string: "C/C(=N\\Nc1nc(-c2ccc(Br)cc2)cs1)c1cc2ccccc2oc1=O"
  inhibition at 3.125 µg/mL [%]: 1.98
- structure string: "O=c1oc2ccccc2cc1-c1csc(N/N=C/c2cc(Cl)cc(Br)c2)n1"
  inhibition at 3.125 µg/mL [%]: 1.64
- structure string: "Cc1ccc2oc(=O)c(/C=N/Nc3nc(-c4ccc([N+](=O)[O-])cc4)cs3)c(Cl)c2c1"
  inhibition at 3.125 µg/mL [%]: 2.92
- structure string: "Cc1ccc2oc(=O)c(/C=N/Nc3nc(-c4cccc([N+](=O)[O-])c4)cs3)c(Cl)c2c1"
  inhibition at 3.125 µg/mL [%]: 4.05

Quick one: inhibition at 3.125 µg/mL for Cc1ccc2oc(=O)c(/C=N/Nc3nc(-c4ccc(C#N)cc4)cs3)c(Cl)c2c1 ?
12.7

====

I'd be grateful if you could share measured inhibition at 3.125 µg/mL for these entries.
Tested on: biofilm of S. aureus ATCC 6538
Assay: 96-well plate crystal violet assay for biofilm inhibition
Type: cell-based, Staphylococcus aureus
Details: Staphylococcus aureus, ATCC6538; 3.125 µg/mL, S. aureus ATCC 6538; read-out: Mean % Inhibition
Give bare numbers, in %.

Field: example entries. Status: answers known.
- structure string: "Cc1ccc2oc(=O)c(/C=N/Nc3nc(-c4ccc([N+](=O)[O-])cc4)cs3)c(Cl)c2c1"
  target entity: "biofilm of S. aureus ATCC 6538"
  inhibition at 3.125 µg/mL [%]: 2.58
- structure string: "Cc1ccc2oc(=O)c(/C=N/Nc3nc(-c4cccc([N+](=O)[O-])c4)cs3)c(Cl)c2c1"
  target entity: "biofilm of S. aureus ATCC 6538"
  inhibition at 3.125 µg/mL [%]: 4
- structure string: "O=c1oc2ccccc2cc1-c1csc(N/N=C/c2cc(Cl)cc(Br)c2)n1"
  target entity: "biofilm of S. aureus ATCC 6538"
  inhibition at 3.125 µg/mL [%]: 1.61
- structure string: "Cc1ccc2oc(=O)c(/C=N/Nc3nc(-c4ccc(C#N)cc4)cs3)c(Cl)c2c1"
  target entity: "biofilm of S. aureus ATCC 6538"
  inhibition at 3.125 µg/mL [%]: 12.8

Now take the following compound into account.
Quick one: inhibition at 3.125 µg/mL for C/C(=N\Nc1nc(-c2ccc(Br)cc2)cs1)c1cc2ccccc2oc1=O ?
1.65

====

I'd be grateful if you could share measured inhibition at 6.25 µg/mL for these entries.
Test system: biofilm of S. aureus ATCC 6538
Assay: 96-well plate crystal violet assay for biofilm inhibition
Format: cell-based, Staphylococcus aureus
Details: Staphylococcus aureus, ATCC6538; 6.25 µg/mL, S. aureus ATCC 6538, replicate 1; read-out: % Inhibition 1
Answers are plain numbers, in %.

Provide the reported inhibition at 6.25 µg/mL of each entry below, same order.
1. Cc1ccc2oc(=O)c(/C=N/Nc3nc(-c4ccc([N+](=O)[O-])cc4)cs3)c(Cl)c2c1 [Compound 4]
2. Cc1ccc2oc(=O)c(/C=N/Nc3nc(-c4cccc([N+](=O)[O-])c4)cs3)c(Cl)c2c1 [Compound 2]

1. 7.04
2. 3.29

Provide the reported inhibition at 6.25 µg/mL of each entry below, same order.
1. Cc1ccc2oc(=O)c(/C=N/Nc3nc(-c4ccc(C#N)cc4)cs3)c(Cl)c2c1 [Compound 3]
2. C/C(=N\Nc1nc(-c2ccc(Br)cc2)cs1)c1cc2ccccc2oc1=O [Compound 10]

[22.7, 5.34]

What value of inhibition at 6.25 µg/mL on biofilm of S. aureus ATCC 6538 does O=c1oc2ccccc2cc1-c1csc(N/N=C/c2cc(Cl)cc(Br)c2)n1 [Compound 17] have?
3.64
